Recorded kinact/KI by entry
molecular target: bovine thrombin (Bos taurus); construct: bovine thrombin; assay: Inactivation rate of bovine thrombin; assay type: biochemical; conditions: Table VIII; pH 7.5, 25° C; [I] 1.2-54 μM; read-out: kobs/[I]
observed-property: kinact/KI

{"mol-smiles": "N=C(N)SCCOc1oc(=O)c2cc(NC(=O)Nc3cccc4ccccc34)ccc2c1Cl", "target-entity": "bovine thrombin (Bos taurus)", "observed-property": "kinact/KI", "measured-result": "17500 M⁻¹ s⁻¹"}
{"mol-smiles": "C[C@H](NC(=O)OC(C)(C)C)C(=O)N[C@@H](C)C(=O)Nc1ccc2c(Cl)c(OCCSC(=N)N)oc(=O)c2c1", "target-entity": "bovine thrombin (Bos taurus)", "observed-property": "kinact/KI", "measured-result": "1530 M⁻¹ s⁻¹"}
{"mol-smiles": "N=C(N)SCCCOc1oc(=O)c2cc(NC(=O)Cc3ccccc3)ccc2c1Cl", "target-entity": "bovine thrombin (Bos taurus)", "observed-property": "kinact/KI", "measured-result": "600 M⁻¹ s⁻¹"}
{"mol-smiles": "CC(C)(C)OC(=O)N[C@@H](Cc1ccccc1)C(=O)Nc1ccc2c(Cl)c(OCCSC(=N)N)oc(=O)c2c1", "target-entity": "bovine thrombin (Bos taurus)", "observed-property": "kinact/KI", "measured-result": "1090 M⁻¹ s⁻¹"}
{"mol-smiles": "N=C(N)SCCOc1oc(=O)c2cc(NC(=O)Cc3ccccc3)ccc2c1Cl", "target-entity": "bovine thrombin (Bos taurus)", "observed-property": "kinact/KI", "measured-result": "15800 M⁻¹ s⁻¹"}
{"mol-smiles": "N=C(N)SCCOc1oc(=O)c2cc(NC(=O)[C@@H](N)Cc3ccccc3)ccc2c1Cl", "target-entity": "bovine thrombin (Bos taurus)", "observed-property": "kinact/KI", "measured-result": "1280 M⁻¹ s⁻¹"}
{"mol-smiles": "N=C(N)SCCCOc1oc(=O)c2cc(NC(=O)CCc3ccccc3)ccc2c1Cl", "target-entity": "bovine thrombin (Bos taurus)", "observed-property": "kinact/KI", "measured-result": "820 M⁻¹ s⁻¹"}

* * *

target: human thrombin (Homo sapiens, UniProt P00734); construct: human thrombin; assay: Inactivation rate of human thrombin; assay type: biochemical; conditions: Table VIII; pH 7.5, 25° C; [I] 1.2-54 μM; read-out: kobs/[I]
// reported kinact/KI for each item listed
observed-property: kinact/KI (M⁻¹ s⁻¹)

{"compound": "N=C(N)SCCOc1oc(=O)c2cc(NC(=O)Cc3ccccc3)ccc2c1Cl [PhCH2 CONH-CiTEtOIC]", "target-entity": "human thrombin (Homo sapiens, UniProt P00734)", "observed-property": "kinact/KI", "unit-symbol": "M⁻¹ s⁻¹", "measured-result": 6730}
{"compound": "CC(C)(C)OC(=O)N[C@H](Cc1ccccc1)C(=O)Nc1ccc2c(Cl)c(OCCSC(=N)N)oc(=O)c2c1 [Boc-D-Phe--NH-CiTEtOIC]", "target-entity": "human thrombin (Homo sapiens, UniProt P00734)", "observed-property": "kinact/KI", "unit-symbol": "M⁻¹ s⁻¹", "measured-result": 1090}
{"compound": "CC(C)(C)OC(=O)N[C@@H](Cc1ccccc1)C(=O)Nc1ccc2c(Cl)c(OCCSC(=N)N)oc(=O)c2c1 [Boc-L-Phe--NH-CiTEtOIC]", "target-entity": "human thrombin (Homo sapiens, UniProt P00734)", "observed-property": "kinact/KI", "unit-symbol": "M⁻¹ s⁻¹", "measured-result": 1140}
{"compound": "N=C(N)SCCCOc1oc(=O)c2cc(NC(=O)[C@@H](N)Cc3ccccc3)ccc2c1Cl [L-Phe--NH-CiTPrOIC]", "target-entity": "human thrombin (Homo sapiens, UniProt P00734)", "observed-property": "kinact/KI", "unit-symbol": "M⁻¹ s⁻¹", "measured-result": 470}
